Data credit: patent US10239849B2

- ASSAY SYSTEM: glutathione-S-transferase (GST) tagged LXRalpha LBD (ligand binding domain) (Homo sapiens)
- Construct: purchased Invitrogen pv4655
- Sequence (Q13133 209-447 limits assumed): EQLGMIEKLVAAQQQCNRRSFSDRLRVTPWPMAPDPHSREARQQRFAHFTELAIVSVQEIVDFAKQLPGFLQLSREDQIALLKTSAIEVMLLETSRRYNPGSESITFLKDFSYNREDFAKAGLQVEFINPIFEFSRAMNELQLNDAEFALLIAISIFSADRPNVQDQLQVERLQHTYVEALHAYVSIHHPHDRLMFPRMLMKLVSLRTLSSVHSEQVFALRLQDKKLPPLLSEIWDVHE
- ASSAY COMMENT: LanthaScreen TR-FRET Liver X Receptor Coactivator Assay, LXR alpha-LBD
- Assay type: biochemical
- TEST SETTINGS: efficacy in relation to reference dual agonist T1317; read-out: LXR alpha activity at max dose (%) (Emax)
QUANTITY KIND: Emax (%)

COMPOUND	Emax (%)
CC(O)CN(CC(C)O)C(=O)c1ccc(-c2cnc(N3CCN(C(=O)OC(C)(C)C)CC3)c(C#N)c2)cc1Cl (stereo not drawn) [Example 5-25]	36
CN(CCc1ccccc1)C(=O)c1ccc(-c2cnc(N3CCN(C(=O)OC(C)(C)C)CC3)c(C#N)c2)cc1Cl [Example 5-26]	48
CN(C)C(=O)c1ccc(-c2cnc(N3CCN(C(=O)OCC4(C)CC4)CC3)c(C#N)c2)cc1Cl [Example 3-12]	30
CN(C)C(=O)c1ccc(-c2cnc(N3C4CCC3C3CCC4N3C(=O)OC(C)(C)C)c(C#N)c2)cc1Cl [Example 8-11]	41
CN(C)C(=O)c1ccc(-c2cnc(N3CCN(S(=O)(=O)c4c(F)cccc4F)CC3)c(C#N)c2)cc1Cl [Example 1-17]	36
CN(C)C(=O)c1ccc(-c2cnc(N3CC4CC3CN4C(=O)OC(C)(C)C)c(C#N)c2)cc1Cl (stereo not drawn) [Example 8-5]	37
